// provenance: paper PMC8053501

Would you kindly list Association with AKI, Unadjusted (95% CI) for each of these compounds?
System: diabetes mellitus patients
Test: Acute kidney injury
Assay type: in vivo, human
Conditions: Endpoint Diagnosis with 1047 Outcome; metformin as reference

Example results:
>  <compound>
COc1ccc2c(c1)c(CC(=O)O)c(C)n2C(=O)c1ccc(Cl)cc1

>  <reported.measurement>
2.81 (2.32–2.94)

$$$$
>  <compound>
OC[C@H]1O[C@@H](c2ccc(Cl)c(Cc3ccc(O[C@H]4CCOC4)cc3)c2)[C@H](O)[C@@H](O)[C@@H]1O

>  <reported.measurement>
0.87 (0.69–1.12)

$$$$
>  <compound>
CCOc1ccc(Cc2cc([C@@H]3O[C@H](CO)[C@@H](O)[C@H](O)[C@H]3O)ccc2Cl)cc1

>  <reported.measurement>
0.94 (0.71–1.25)

$$$$
>  <compound>
CC#CCn1c(N2CCC[C@@H](N)C2)nc2c1c(=O)n(Cc1nc(C)c3ccccc3n1)c(=O)n2C

>  <reported.measurement>
0.97 (0.68–1.32)

$$$$
>  <compound>
Cc1ccc(-c2cc(C(F)(F)F)nn2-c2ccc(S(N)(=O)=O)cc2)cc1

>  <reported.measurement>
2.95 (2.68–3.25)

$$$$
>  <compound>
CC(C)Cc1ccc(C(C)C(=O)O)cc1 (centres unmarked)

>  <reported.measurement>
3.14 (2.87–3.74)

$$$$

Batch of 2 compounds: report Association with AKI, Unadjusted (95% CI) for each.
1. N#C[C@@H]1CCCN1C(=O)CNC12CC3CC(CC(O)(C3)C1)C2
2. OC[C@H]1O[C@@H](c2ccc(F)c(Cc3cc4ccccc4s3)c2)[C@H](O)[C@@H](O)[C@@H]1O

["1.23 (0.97–1.32)", "0.78 (0.61–1.08)"]

###

Please provide measured Drug concentration, time course for the entries that follow.
Details: normal mice, oral gavage, 3mg/kg; Plasma; 6h

Recorded Drug concentration, time course, per entry:
>  <compound>
Cc1ccc(-c2cc(C(F)(F)F)nn2-c2ccc(S(N)(=O)=O)cc2)cc1 [Celecoxib, celecoxib]

>  <reported.measurement>
50

$$$$
>  <compound>
CC1(C)S[C@@H]2[C@H](NC(=O)[C@H](N)c3ccc(O)cc3)C(=O)N2[C@H]1C(=O)O [Amoxicillin, amoxicillin]

>  <reported.measurement>
45

$$$$
>  <compound>
CC#CCn1c(N2CCC[C@@H](N)C2)nc2c1c(=O)n(Cc1nc(C)c3ccccc3n1)c(=O)n2C [Linagliptin, linagliptin]

>  <reported.measurement>
310

$$$$
>  <compound>
N#C[C@@H]1CCCN1C(=O)CNC12CC3CC(CC(O)(C3)C1)C2 [Vildagliptin, vildagliptin]

>  <reported.measurement>
3000

$$$$
>  <compound>
OC[C@H]1O[C@@H](c2ccc(Cl)c(Cc3ccc(O[C@H]4CCOC4)cc3)c2)[C@H](O)[C@@H](O)[C@@H]1O [Jardiance]

>  <reported.measurement>
450

$$$$
>  <compound>
COc1ccc2c(c1)c(CC(=O)O)c(C)n2C(=O)c1ccc(Cl)cc1 [Indomethacin, indomethacin]

>  <reported.measurement>
100

$$$$
>  <compound>
OC[C@H]1O[C@@H](c2ccc(F)c(Cc3cc4ccccc4s3)c2)[C@H](O)[C@@H](O)[C@@H]1O [Ipragliflozin, ipragliflozin]

>  <reported.measurement>
250

$$$$
>  <compound>
Cn1c(=O)cc(N2CCC[C@@H](N)C2)n(Cc2ccccc2C#N)c1=O [Alogliptin, alogliptin]

>  <reported.measurement>
250

$$$$
>  <compound>
Cc1ccc([C@@H]2O[C@H](CO)[C@@H](O)[C@H](O)[C@H]2O)cc1Cc1ccc(-c2ccc(F)cc2)s1 [Canagliflozin, canagliflozin]

>  <reported.measurement>
300

$$$$
>  <compound>
CC1=C(C(=O)O)N2C(=O)[C@@H](NC(=O)[C@H](N)c3ccccc3)[C@H]2SC1 [Cephalexin, cephalexin]

>  <reported.measurement>
70

$$$$

Please turn your attention to the following entry.
CC(C)Cc1ccc(C(C)C(=O)O)cc1 (centres unmarked) [Ibuprofen, ibuprofen] has a reported Drug concentration, time course of 400

###

Conditions: normal mice, oral gavage, 3mg/kg; Kidney; 3h
endpoint.name: Drug concentration, time course

Solved entries:
>  <molecule>
CC1(C)S[C@@H]2[C@H](NC(=O)[C@H](N)c3ccc(O)cc3)C(=O)N2[C@H]1C(=O)O [Amoxicillin, amoxicillin]

>  <Drug concentration, time course>
7320

$$$$
>  <molecule>
Cn1c(=O)cc(N2CCC[C@@H](N)C2)n(Cc2ccccc2C#N)c1=O [Alogliptin, alogliptin]

>  <Drug concentration, time course>
6700

$$$$
>  <molecule>
CC1=C(C(=O)O)N2C(=O)[C@@H](NC(=O)[C@H](N)c3ccccc3)[C@H]2SC1 [Cephalexin, cephalexin]

>  <Drug concentration, time course>
8130

$$$$
>  <molecule>
Cc1ccc(-c2cc(C(F)(F)F)nn2-c2ccc(S(N)(=O)=O)cc2)cc1 [Celecoxib, celecoxib]

>  <Drug concentration, time course>
10,340

$$$$

# batch: return Drug concentration, time course for each of the 3 molecules below
1. OC[C@H]1O[C@@H](c2ccc(Cl)c(Cc3ccc(O[C@H]4CCOC4)cc3)c2)[C@H](O)[C@@H](O)[C@@H]1O [Jardiance]
2. Cc1ccc([C@@H]2O[C@H](CO)[C@@H](O)[C@H](O)[C@H]2O)cc1Cc1ccc(-c2ccc(F)cc2)s1 [Canagliflozin, canagliflozin]
3. CC#CCn1c(N2CCC[C@@H](N)C2)nc2c1c(=O)n(Cc1nc(C)c3ccccc3n1)c(=O)n2C [Linagliptin, linagliptin]

1. 1800
2. 5000
3. 18,500

List the reported Drug concentration, time course of each molecule below.
1. COc1ccc2c(c1)c(CC(=O)O)c(C)n2C(=O)c1ccc(Cl)cc1 [Indomethacin, indomethacin]
2. N#C[C@@H]1CCCN1C(=O)CNC12CC3CC(CC(O)(C3)C1)C2 [Vildagliptin, vildagliptin]
3. OC[C@H]1O[C@@H](c2ccc(F)c(Cc3cc4ccccc4s3)c2)[C@H](O)[C@@H](O)[C@@H]1O [Ipragliflozin, ipragliflozin]

1. 8240
2. 4500
3. 16,700

###

Would you mind telling me the reported Association with AKI, Unadjusted (95% CI) of each entry?
Test system: diabetes mellitus patients
Assay: Acute kidney injury
Type: in vivo, human
Conditions: Secondary Diagnosis with 3919 Outcomes; metformin as reference

>  <molecule>
CCOc1ccc(Cc2cc([C@@H]3O[C@H](CO)[C@@H](O)[C@H](O)[C@H]3O)ccc2Cl)cc1 [Dapagliflozin, dapagliflozin]

>  <reported.measurement>
0.81 (0.63–1.33)

$$$$

Provide reported Association with AKI, Unadjusted (95% CI) for each item, in the same order as listed.
1. N#C[C@@H]1CCCN1C(=O)CNC12CC3CC(CC(O)(C3)C1)C2 [Vildagliptin, vildagliptin]
2. COc1ccc2c(c1)c(CC(=O)O)c(C)n2C(=O)c1ccc(Cl)cc1 [Indomethacin, indomethacin]

1: 1.20 (0.72–1.38); 2: 2.45(2.09–2.54)

###

Conditions: normal mice, oral gavage, 3mg/kg; Plasma; 9h
endpoint.name: Drug concentration, time course
Answers are plain numbers.

Return reported Drug concentration, time course values for all items listed beneath this line.
1. OC[C@H]1O[C@@H](c2ccc(Cl)c(Cc3ccc(O[C@H]4CCOC4)cc3)c2)[C@H](O)[C@@H](O)[C@@H]1O
2. Cc1ccc([C@@H]2O[C@H](CO)[C@@H](O)[C@H](O)[C@H]2O)cc1Cc1ccc(-c2ccc(F)cc2)s1
3. CC(C)Cc1ccc(C(C)C(=O)O)cc1 (stereo not shown)

1: 200; 2: 50; 3: 140

###

Record form. Attribute: Drug concentration, time course. Fill in for each entry.
Conditions: normal mice, oral gavage, 3mg/kg; Kidney; 18h

For orientation, consider the following solved cases.
>  <compound>
CC#CCn1c(N2CCC[C@@H](N)C2)nc2c1c(=O)n(Cc1nc(C)c3ccccc3n1)c(=O)n2C [Linagliptin, linagliptin]

>  <endpoint.name>
Drug concentration, time course

>  <reported.measurement>
500

$$$$
>  <compound>
CC1(C)S[C@@H]2[C@H](NC(=O)[C@H](N)c3ccc(O)cc3)C(=O)N2[C@H]1C(=O)O [Amoxicillin, amoxicillin]

>  <endpoint.name>
Drug concentration, time course

>  <reported.measurement>
0

$$$$
>  <compound>
COc1ccc2c(c1)c(CC(=O)O)c(C)n2C(=O)c1ccc(Cl)cc1 [Indomethacin, indomethacin]

>  <endpoint.name>
Drug concentration, time course

>  <reported.measurement>
0

$$$$

Then this compound:
Quick note, Drug concentration, time course for Cc1ccc(-c2cc(C(F)(F)F)nn2-c2ccc(S(N)(=O)=O)cc2)cc1 [Celecoxib, celecoxib] landed at 0

###

Experiment: in vivo
Details: male, ICR, mouse, po, 3 mg/kg, Cmax, oral gavage, Kidney
Give measured Cmax for each item. Keep answers brief.
One number for each entry, in ng/mL.

Some molecules with recorded Cmax:
>  <mol.smiles>
COc1ccc2c(c1)c(CC(=O)O)c(C)n2C(=O)c1ccc(Cl)cc1

>  <Cmax / ng/mL>
10300

$$$$
>  <mol.smiles>
N#C[C@@H]1CCCN1C(=O)CNC12CC3CC(CC(O)(C3)C1)C2

>  <Cmax / ng/mL>
5870

$$$$
>  <mol.smiles>
CC1(C)S[C@@H]2[C@H](NC(=O)[C@H](N)c3ccc(O)cc3)C(=O)N2[C@H]1C(=O)O

>  <Cmax / ng/mL>
4510

$$$$
>  <mol.smiles>
Cc1ccc(-c2cc(C(F)(F)F)nn2-c2ccc(S(N)(=O)=O)cc2)cc1

>  <Cmax / ng/mL>
12100

$$$$
>  <mol.smiles>
OC[C@H]1O[C@@H](c2ccc(F)c(Cc3cc4ccccc4s3)c2)[C@H](O)[C@@H](O)[C@@H]1O

>  <Cmax / ng/mL>
4140

$$$$
>  <mol.smiles>
OC[C@H]1O[C@@H](c2ccc(Cl)c(Cc3ccc(O[C@H]4CCOC4)cc3)c2)[C@H](O)[C@@H](O)[C@@H]1O

>  <Cmax / ng/mL>
1740

$$$$
>  <mol.smiles>
Cn1c(=O)cc(N2CCC[C@@H](N)C2)n(Cc2ccccc2C#N)c1=O

>  <Cmax / ng/mL>
8560

$$$$

Value of measured Cmax for the entry CC#CCn1c(N2CCC[C@@H](N)C2)nc2c1c(=O)n(Cc1nc(C)c3ccccc3n1)c(=O)n2C : 6440
